Subject of test: T1, hErbB3.hFc (soluble dimeric human ErbB3 extracellular domain fused to human Fc) (human)
T1 construct: called dimeric
Protocol summary: SPR (Biacore), 25 C, mAb capture format
The following binders are shown together with reported kon values.
Observable: kon (M⁻¹ s⁻¹)

{"Binder": "H2M1937N (antibody, V domains shown, Hybridoma chimeric antibody: human variable domains, mouse IgG2 Fc (H2M prefix)) VH: QVQLQQWDAGLLKPSETLSLTCAVYGGSFSSYYWSWIRQPPGKGLEWIGEINHRGSTNYNPSLKSRVTISVDTSKNQFSLKLRSVTAADTAVYYCARGGVAARPDWHFFDYWGQGTLVTVSS VL: DIQMTQSPSSLSASVGDRVTITCRASQVIRNDLGWFQQRPGKAPKRLIYAASSLQSEVPSRFSGSGSGTEFTLTITSLQPEDFATYYCLQHNSYPLTFGQGTRLEIK", "Observable": "kon", "Units symbol": "M⁻¹ s⁻¹", "Result value": 110000}
{"Binder": "H2M1827N (antibody, V domains shown, Hybridoma chimeric antibody: human variable domains, mouse IgG2 Fc (H2M prefix)) VH: EVQLVESGGGVVRPGGSLRLSCAASGFTFDDYGMSWVRQAPGKGLECVSGISWNGGNTDYADSVKGRFTISRDNAKNSLYLQMNSLRAEDTALYHCARDGGDWDYFDLWGRGTLVTVSS VL: EILMTQSPATLSVSPGERATLSCRASQSVSSNLAWYQQKPGQAPRLLIYGASTRATGIPARFSGSGSGTEFTLTISSLQSEDFAIYYCQEYNDWPLTFGGGTKVEIK", "Observable": "kon", "Units symbol": "M⁻¹ s⁻¹", "Result value": 439000}
{"Binder": "H2M1938N (antibody, V domains shown, Hybridoma chimeric antibody: human variable domains, mouse IgG2 Fc (H2M prefix)) VH: EVQLVESGGGVVRPGGSLRLSCAASGFTFDDYGMSWVRQVPGKGLEWVSGLNWNGGITGYTDSVKGRFTISRDNAKNSLYLQMNSLRAEDTAFYHCARDSGDQDAFDIWGQGTMVTVSS VL: QIVMTQSPATLSVSPGERATLSCRASQSITPYLAWYQQKPGQTPRLLIYGVSTRATGIPARFSGSGSGTEFTLTISSLQSEDFAVYYCQQYDNWYTFGQGTKLEIK", "Observable": "kon", "Units symbol": "M⁻¹ s⁻¹", "Result value": 451000}
{"Binder": "H1M1819N (antibody, V domains shown, Hybridoma chimeric antibody: human variable domains, mouse constant domains (H1M prefix, mouse Fc)) VH: EVQLVESGGGVVRPGGSLRLSCAASGFTFDDYAMHWVRQAPGKGLEWVAGISWNSGSIDYADSVKGRFTISRDNAKNSLYLQMNSLRAGDTALYYCAKDILDLDYYGLDVWGQGTTVTVSS VL: DIQMTQSPSSLSASVGDRVTITCRASQDISSYLAWYQQKPGKVPNLLIYDASSLQSGVPSRFSGSGSGTDFTLTLSSLQPEDFASYYCQNYNSAPYTFGQGTKLEIK", "Observable": "kon", "Units symbol": "M⁻¹ s⁻¹", "Result value": 480000}
{"Binder": "H2M1824N (antibody, V domains shown, Hybridoma chimeric antibody: human variable domains, mouse IgG2 Fc (H2M prefix)) VH: EVQLVESGGGVVRPGGSLRLSCAASGFTFDDYGMSWVRQAPGKGLECVSGINWNGGSTDYADSVKGRFTISRDNAKNSLYLQMNSLRAEDTASYYCARDGGDWDYFDLWGRGTLVTVSS VL: EIVMTQSPATLSVSPGERATLSCRASQSVSSNLAWYQQKPGQAPRLLIYGASTRATGIPARFSGSGSGTEFTLTISSLQSEDFAVYFCQEYNDWPLTFGGGTKVEIK", "Observable": "kon", "Units symbol": "M⁻¹ s⁻¹", "Result value": 431000}
{"Binder": "H2M1934N (antibody, V domains shown, Hybridoma chimeric antibody: human variable domains, mouse IgG2 Fc (H2M prefix)) VH: EVQLVQSGGGLVKPGGSLRLSCAASGFTFSNFNMNWVRQAPGKGLEWVSFISSLSTYTYYADSVKGRFTISRDNAKNSLYLQMNSLRAEDTAVYYCARDDGDHDWFDPWGQGTLVTVSS VL: EIVLTQSPDTLSLSPGERATLSCRASQSVSSNYLAWYQQKPGQAPRLLIYSASNRATGIPDRFSGSGSGTDFTLTISRLEPEDFAVYYCQQYDSSYTFGQGTKLEIK", "Observable": "kon", "Units symbol": "M⁻¹ s⁻¹", "Result value": 359000}
